- target: BRAF V600E (Homo sapiens, UniProt P15056, V600E)
- Construct: expressed in transfected cells
- Sequence (P15056 whole entry V600E): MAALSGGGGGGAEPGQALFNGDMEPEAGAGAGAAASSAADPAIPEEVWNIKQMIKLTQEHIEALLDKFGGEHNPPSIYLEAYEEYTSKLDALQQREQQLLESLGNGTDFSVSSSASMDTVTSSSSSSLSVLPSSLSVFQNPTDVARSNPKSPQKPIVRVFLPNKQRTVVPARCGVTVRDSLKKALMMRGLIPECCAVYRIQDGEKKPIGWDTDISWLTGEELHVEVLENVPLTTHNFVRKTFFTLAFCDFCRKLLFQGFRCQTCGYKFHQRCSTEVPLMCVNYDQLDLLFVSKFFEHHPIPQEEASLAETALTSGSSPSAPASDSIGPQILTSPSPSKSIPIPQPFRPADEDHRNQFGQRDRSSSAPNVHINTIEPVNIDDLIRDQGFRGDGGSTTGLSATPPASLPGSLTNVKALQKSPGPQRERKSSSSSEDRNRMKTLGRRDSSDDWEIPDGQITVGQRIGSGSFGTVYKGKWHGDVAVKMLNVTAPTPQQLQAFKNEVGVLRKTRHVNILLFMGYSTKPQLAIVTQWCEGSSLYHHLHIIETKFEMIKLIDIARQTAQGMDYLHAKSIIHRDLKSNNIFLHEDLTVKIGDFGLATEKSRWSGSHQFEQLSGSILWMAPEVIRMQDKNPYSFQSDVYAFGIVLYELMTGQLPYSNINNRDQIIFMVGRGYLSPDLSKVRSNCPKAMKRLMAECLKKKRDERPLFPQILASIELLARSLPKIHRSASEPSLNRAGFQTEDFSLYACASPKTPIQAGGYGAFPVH
- measurementProtocol: Cellular assay of target protein degradation, T-Rex 293 cells stably transfected with HA-BRAF_V600E (HA immunofluorescence, high content imaging)
- Assay type: cell-based
- testSettings: half maximal degradation, T-Rex 293 HA-BRAF V600E; read-out: BRaf V600E DC50
measuredMetric: DC50

Data request: Endpoint output: DC50 of O=C1CCC(N2Cc3cc(CCOCCN4CCN(c5ccc(-c6cnc7[nH]cc(C(=O)c8c(F)ccc(NS(=O)(=O)N9CC[C@@H](F)C9)c8F)c7c6)cc5)CC4)ccc3C2=O)C(=O)N1 (stereo partly drawn) . Value?
Data returned: 5 to 50 nM

---

- target: BRAF G466V (Homo sapiens, UniProt P15056, G466V)
- Construct: expressed in transfected cells
- Sequence (P15056 whole entry G466V): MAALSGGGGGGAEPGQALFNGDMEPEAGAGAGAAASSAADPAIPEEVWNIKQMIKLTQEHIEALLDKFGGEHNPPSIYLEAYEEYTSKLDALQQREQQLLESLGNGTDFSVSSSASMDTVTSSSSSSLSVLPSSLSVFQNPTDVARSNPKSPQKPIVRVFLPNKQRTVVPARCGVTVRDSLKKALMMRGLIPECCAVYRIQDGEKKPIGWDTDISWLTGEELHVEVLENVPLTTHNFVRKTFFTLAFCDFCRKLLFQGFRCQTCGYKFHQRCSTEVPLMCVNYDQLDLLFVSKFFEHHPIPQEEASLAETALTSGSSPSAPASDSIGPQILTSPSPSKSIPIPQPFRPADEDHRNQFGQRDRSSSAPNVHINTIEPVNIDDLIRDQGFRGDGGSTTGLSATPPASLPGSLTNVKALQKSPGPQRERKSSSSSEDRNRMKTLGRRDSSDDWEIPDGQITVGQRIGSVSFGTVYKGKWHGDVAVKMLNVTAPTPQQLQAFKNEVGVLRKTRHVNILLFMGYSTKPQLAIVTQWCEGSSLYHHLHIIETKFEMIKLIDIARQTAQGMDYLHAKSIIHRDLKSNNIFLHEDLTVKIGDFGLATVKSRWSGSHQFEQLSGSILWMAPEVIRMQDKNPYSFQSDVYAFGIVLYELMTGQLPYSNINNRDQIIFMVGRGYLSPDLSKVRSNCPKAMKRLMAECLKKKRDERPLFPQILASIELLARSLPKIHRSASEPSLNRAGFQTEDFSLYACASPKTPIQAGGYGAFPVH
- measurementProtocol: Cellular assay of target protein degradation, T-Rex 293 cells stably transfected with HA-BRAF G466V (HA immunofluorescence, high content imaging)
- Assay type: cell-based
- testSettings: half maximal degradation, T-Rex 293 HA-BRAF G466V; read-out: BRaf G466V DC50
# DC50 per entry

- compound: "COc1cc(CCCN2CC3(C2)CN(c2ccc(-c4cnc5[nH]cc(C(=O)c6c(F)ccc(NS(=O)(=O)N7CC[C@@H](F)C7)c6F)c5c4)cc2)C3)cc2c1C(=O)N(C1CCC(=O)NC1=O)C2 (stereo partly drawn) [Compound 22]"
  DC50: "< 1 nM"
- compound: "O=C1CC[C@@H](N2Cc3cc([C@@H](O)CCN4CCN(c5ccc(-c6cnc7[nH]cc(C(=O)c8c(F)ccc(NS(=O)(=O)N9CC[C@@H](F)C9)c8F)c7c6)cc5)CC4)c(F)cc3C2=O)C(=O)N1 [Compound 301]"
  DC50: "< 1 nM"

Data request: Endpoint output: DC50 of COc1ccc(NS(=O)(=O)N2CC[C@@H](F)C2)c(OC)c1C(=O)c1c[nH]c2ncc(-c3ccc(N4CCC(CN5CCC(c6ccc7c(c6)CN(C6CCC(=O)NC6=O)C7=O)CC5)CC4)cc3)cc12 (stereo partly drawn) [Compound 275] . Value?
Data returned: > 30 nM

Data request: Endpoint output: DC50 of O=C1CC[C@H](N2Cc3cc([C@@H](O)CCN4CCN(c5ccc(-c6cnc7[nH]cc(C(=O)c8c(F)ccc(NS(=O)(=O)N9CC[C@@H](F)C9)c8F)c7c6)cc5)CC4)c(F)cc3C2=O)C(=O)N1 [Compound 300] . Value?
Data returned: < 1 nM

Data request: Endpoint output: DC50 of O=C1CC[C@@H](N2Cc3cc(OC[C@H](O)CN4CC5(C4)CN(c4ccc(-c6cnc7[nH]cc(C(=O)c8c(F)ccc(NS(=O)(=O)N9CC[C@@H](F)C9)c8F)c7c6)cc4)C5)ccc3C2=O)C(=O)N1 [Compound 124] . Value?
Data returned: 1 to 10 nM

Data request: Endpoint output: DC50 of O=C1CC[C@@H](N2Cc3cc(N4CC(CN5CCN(C6(c7ncc(-c8cnc9[nH]cc(C(=O)c%10c(F)ccc(NS(=O)(=O)N%11CC[C@@H](F)C%11)c%10F)c9c8)cn7)CC6)CC5)C4)ccc3C2=O)C(=O)N1 [Compound 286] . Value?
Data returned: 1 to 10 nM

Data request: Endpoint output: DC50 of O=C1CC[C@@H](N2Cc3cc(C[C@@H](O)CN4CCN(c5ccc(-c6cnc7[nH]cc(C(=O)c8c(F)ccc(NS(=O)(=O)N9CC[C@@H](F)C9)c8F)c7c6)cc5)CC4)ccc3C2=O)C(=O)N1 [Compound 73] . Value?
Data returned: 1 to 10 nM

Data request: Endpoint output: DC50 of O=C1CC[C@@H](N2Cc3cc(C4CCN(CC5CCN(c6ccc(-c7cnc8[nH]cc(C(=O)c9c(F)ccc(NS(=O)(=O)N%10CC[C@@H](F)C%10)c9F)c8c7)cc6)CC5)CC4)ccc3C2=O)C(=O)N1 [Compound 161] . Value?
Data returned: < 1 nM

Data request: Endpoint output: DC50 of COc1cc(N2CCC(CN3CCC4(CC3)CCN(c3ccc(-c5cnc6[nH]cc(C(=O)c7c(F)ccc(NS(=O)(=O)N8CC[C@@H](F)C8)c7F)c6c5)cc3)CC4)CC2)cc2c1C(=O)N(C1CCC(=O)NC1=O)C2 (stereo partly drawn) [Compound 6] . Value?
Data returned: 1 to 10 nM
